System: MOLT-4
Experiment Notes: NCI tumour cell line growth inhibition, 48 h
Calls of active or inactive are those of the source. Rule as the data show it: active = GI50 up to about 1.1 µM and inactive = higher.
Hello, when you answer, please use one of the following outcomes: y for active, n for inactive

Compound: Cc1cnc(-c2c[nH]c3ccccc23)nc1-c1c[nH]c2ccccc12
Experimental System: MOLT-4
Group Label: n

Compound: COc1cc(C2C(=O)C(Cl)N2Nc2nc(C)cc(O)n2)cc(OC)c1OC (configuration not stated)
Experimental System: MOLT-4
Group Label: n

Compound: CCOC(=O)C1=c2[nH]c3cccc4cccc(c43)n2C=C(C(C)=O)C1CC(C)=O (configuration not stated)
Experimental System: MOLT-4
Group Label: n

INPUT: For this compound, state the assay outcome: O=C1C(CO)=C(CO)C(=O)c2c(O)ccc(O)c21
OUTPUT: y

INPUT: For this compound, state the assay outcome: O=C1/C(=C/c2ccc(Br)s2)NC(=S)N1c1ccccc1
OUTPUT: n

INPUT: For this compound, state the assay outcome: c1ccc2c(c1)-c1nc3ccccc3cc1C2N1CCOCC1 (configuration not stated)
OUTPUT: n

INPUT: For this compound, state the assay outcome: CC1=NN(c2nc(N)nc(-c3cc4ccccc4oc3=N)n2)C(C)(C)C1
OUTPUT: n
